Test system: MCF-7 breast adenocarcinoma cells
experimental_details: Cancer cell proliferation assay, single agent (cell viability)
Type: cell-based
test_context: Homo sapiens, MCF7, Table 4; Rb positive; treatment 144 Hr with medium change at 72 Hr; Cell Titer-Glo or resazurin
pIC50: −log10 of the molar value.
property_label: pIC50

CN1CCn2nc(Nc3ncc4cc(C#N)c(=O)n(C5CCCC5)c4n3)cc2C1	5.20

[I] N#Cc1cc2cnc(Nc3ccc(N4CCC(O)CC4)c(F)c3)nc2n(C2CCCC2)c1=O
[II] CS(=O)(=O)N1CCC(Nc2ncc3cc(C#N)c(=O)n([C@H]4C[C@@H]5CC[C@H]4C5)c3n2)CC1 [Compound No. 387]
[III] CN(C)CC(=O)N1CCc2ccc(Nc3ncc4cc(C#N)c(=O)n(C5CCCC5)c4n3)cc2C1
// query Please produce an ascending ranking of these compounds based on pIC50. Form entry: labels listed in requested order.
// result I, II, III
